Entries and their measured pIC50 follow.
target entity: human ALK2 R206H (Homo sapiens, UniProt Q04771, R206H)
Construct: expressed in transfected cells; host or cells: HEK293 (ATCC CRL1573), lentivirus transduction, blasticidin selection
Sequence (Q04771 21-509 R206H): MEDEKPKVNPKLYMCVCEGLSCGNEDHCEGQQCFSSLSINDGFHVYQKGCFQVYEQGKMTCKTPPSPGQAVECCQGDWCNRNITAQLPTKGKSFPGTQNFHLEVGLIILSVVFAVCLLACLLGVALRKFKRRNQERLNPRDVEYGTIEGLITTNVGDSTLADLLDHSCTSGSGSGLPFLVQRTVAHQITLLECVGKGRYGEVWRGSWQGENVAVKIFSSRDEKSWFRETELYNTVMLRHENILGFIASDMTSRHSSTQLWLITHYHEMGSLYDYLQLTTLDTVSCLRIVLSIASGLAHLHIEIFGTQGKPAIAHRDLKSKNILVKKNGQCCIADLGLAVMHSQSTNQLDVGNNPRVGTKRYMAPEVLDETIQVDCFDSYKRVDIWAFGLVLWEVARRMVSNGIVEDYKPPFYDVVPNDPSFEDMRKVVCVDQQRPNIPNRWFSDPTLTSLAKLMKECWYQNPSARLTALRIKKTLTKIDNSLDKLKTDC
procedure summary: Cell-based ALK2-R206H cell activity assay (Smad1-Ser463/Ser465 phosphorylation by AlphaLISA in HEK293-ALK2-R206H cells)
assay setup: read-out: Cell Line (Cell Assay IC50)
pIC50: −log10 of the molar value.

INSERT INTO results (compound, endpoint_value) VALUES
  ('CC(C)N1CC[C@H](c2ccc(-c3cc4c(N5CCN(C(=O)C6CC6)CC5)ccnn4c3)cc2F)C1', '> 7.00'),
  ('[2H]C([2H])([2H])C([2H])([2H])OC(=O)N1CCN(c2ccnn3cc(-c4ccc([C@@]5(OCC)CCCNC5)cn4)cc23)CC1', '> 7.00'),
  ('CC(N)(CO)c1ccc(-c2cc3c(N4CCN(C(=O)OC5COC5)CC4)ccnn3c2)cc1 (centres unmarked)', '> 7.00'),
  ('CN1CCN(c2ccc(-c3cc4c(N5CCN(C(=O)C6CCC6)CC5)ccnn4c3)cc2)CC1', '6.30 to 7.00'),
  ('CC(C)N1CCCC1c1ccc(-c2cc3c(N4CCN(C(=O)C5CC5)CC4)ccnn3c2)cc1 (centres unmarked)', '> 7.00'),
  ('CC(C)N1CCC(c2ccc(-c3cc4c(N5CCN(C(=O)OC6CC(C#N)C6)CC5)ccnn4c3)cc2)CC1 (centres unmarked)', '> 7.00'),
  ('CCNC(=O)N1CCN(c2ccnn3cc(-c4ccc(C5CCN(C(C)C)CC5)cc4)cc23)C[C@H]1C', '> 7.00'),
  ('CCOC(=O)N1CCN(c2ccnn3cc(-c4ccc(OC5CN(C(C)C)C5)cc4)cc23)CC1', '6.30 to 7.00');

Exam item: What is its pIC50 for human ALK2 R206H (Homo sapiens, UniProt Q04771, R206H)? Entry: "O=C(C1CC1)N1CCN(c2ccnn3cc(-c4ccc([C@H]5CNCCO5)cc4)cc23)CC1"
Marked response: 6.30 to 7.00

Exam item: What is its pIC50 for human ALK2 R206H (Homo sapiens, UniProt Q04771, R206H)? Entry: O=C(C1CC1)N1CCN(c2ccnn3cc(-c4ccc(C5COCCN5)cc4)cc23)CC1 (centres unmarked)
Marked response: > 7.00

Exam item: What is its pIC50 for human ALK2 R206H (Homo sapiens, UniProt Q04771, R206H)? Entry: "CCOC(=O)N1CCN(c2ccnn3cc(-c4ccc(C5(OCC)CCN(C6COC6)CC5)cn4)cc23)CC1"
Marked response: > 7.00

Exam item: What is its pIC50 for human ALK2 R206H (Homo sapiens, UniProt Q04771, R206H)? Entry: "COC1(c2ccc(-c3cc4c(N5CCN(C(=O)[C@H]6C[C@H](C#N)C6)CC5)ccnn4c3)cc2)CCN([C@@H](C)CO)CC1"
Marked response: > 7.00

Exam item: What is its pIC50 for human ALK2 R206H (Homo sapiens, UniProt Q04771, R206H)? Entry: "O=C(C1CC(F)(F)C1)N1CCN(c2ccnn3cc(-c4ccc(N5CCNCC5)cc4)cc23)CC1"
Marked response: 6.30 to 7.00

Exam item: What is its pIC50 for human ALK2 R206H (Homo sapiens, UniProt Q04771, R206H)? Entry: "COC1(c2ccc(-c3cc4c(N5CCN(C(=O)C6CC6)CC5)ccnn4c3)c(C#N)c2)CCN(C(C)C)CC1"
Marked response: > 7.00

Exam item: What is its pIC50 for human ALK2 R206H (Homo sapiens, UniProt Q04771, R206H)? Entry: "CCOC(=O)N1CCN(c2ccnn3cc(-c4ccc([C@@]5(F)CCCNC5)cc4)cc23)CC1"
Marked response: > 7.00

Exam item: What is its pIC50 for human ALK2 R206H (Homo sapiens, UniProt Q04771, R206H)? Entry: "CCNC(=O)N1CCN(c2ccnn3cc(-c4ccc([C@]5(OC)CCCN(C(C)C)C5)cn4)cc23)CC1"
Marked response: > 7.00

Exam item: What is its pIC50 for human ALK2 R206H (Homo sapiens, UniProt Q04771, R206H)? Entry: "CC(C)N1CCN[C@@H](c2ccc(-c3cc4c(N5CCN(C(=O)C6CC6)CC5)ccnn4c3)cc2)C1"
Marked response: > 7.00

Exam item: What is its pIC50 for human ALK2 R206H (Homo sapiens, UniProt Q04771, R206H)? Entry: CCN1CCC(c2ccc(-c3cc4c(N5CCN(C(=O)[C@H]6C[C@@H]6C)CC5)ccnn4c3)cc2)C1 (some centres unmarked)
Marked response: > 7.00

Numbers sourced from patent US10233186B2.
